From: patent US20230121547A1

# EXPERIMENT: physchem
# COND: organic solvent or mixture, thermodynamic from solid
# Procedure: Weighed samples of material were treated with aliquots of specified solvents at ambient temperature. Samples were typically sonicated between additions to facilitate dissolution. Complete dissolution was observed through visual inspection. Solubility was calculated based on the total amount of solvent added to achieve complete dissolution and may be greater than the value reported due to incremental solvent addition and the inherent kinetics of dissolution. […]
VALUE_KIND: solubility

Inquiry: Report solubility for Br.Br.CCC[C@H](N[C@H]1CCc2cc(F)cc(F)c2C1)C(=O)Nc1cn(C(C)(C)CNCC(C)(C)C)cn1 [nirogacestat dihydrobromide] please.
Reply text: < 1000 µg/mL
